- Tested on: peripheral blood mononuclear cell (PBMC)
- assay summary: Peripheral blood mononuclear cell assay
- Format: cell-based
- experimental conditions: PBMC, 1h with compound, washed, 15 hour incubation; TNF-α level in medium; read-out: PBMC EC50 TNF-α
pEC50: −log10 of the molar value.

{"molecule": "Nc1ncnc2c1ncn2[C@@H]1O[C@@H]2/C=C/P(=O)(O)O[C@H]3C[C@H](n4cnc5c(N)ncnc54)O[C@@H]3COP(=O)(O)O[C@H]2[C@H]1F [Compound 60]", "measured on": "peripheral blood mononuclear cell (PBMC)", "pEC50": 4.00}
{"molecule": "CC(C)(C)C(=O)OCOP1(=O)/C=C/[C@H]2O[C@@H](n3cnc4c(N)ncnc43)[C@H](F)[C@@H]2OP(=O)(OCOC(=O)C(C)(C)C)OC[C@H]2O[C@@H](n3cnc4c(N)ncnc43)[C@H](F)[C@@H]2O1 (single isomer, unassigned) [Compound 80c]", "measured on": "peripheral blood mononuclear cell (PBMC)", "pEC50": 7.00}

Measured values drawn from patent US20230303613A1 for this set.
